Target Desc: Protein farnesyltransferase (Homo sapiens, UniProt P49354+P49356)
Procedure Summary: Displacement of radiolabeled FTI from Farnesyltransferase in cultured Ha-ras transformed RAT1 cells.
Assay type: cell-based
Property Measured: IC50 (µM)
Give your result in µM as a bare value.

1) N#Cc1ccc2cc1Oc1ccc(CC(O)CO)c(c1)CN1CCN(CC1=O)Cc1cncn1C2 (centres undefined): 0.04
2) N#Cc1ccc2cc1Oc1ccc(C#CC3CCCCC3)c(c1)CN1CCN(CC1=O)Cc1cncn1C2: 0.17
3) CC(C)(C)C#Cc1ccc2cc1CN1CCN(CC1=O)Cc1cncn1Cc1ccc(C#N)c(c1)O2: 0.01

# evaluate next
Given the entry `N#Cc1ccc2cc1Oc1ccc(Cl)c(c1)CN1CCN(CC1=O)Cc1cncn1C2` , report its measured IC50. 0.0003

====

Target Desc: Geranylgeranyl transferase type I (Homo sapiens, UniProt P49354+P53609)
Procedure Summary: Inhibition of human Geranylgeranyl transferase type I incorporation of [3H]GGPP into biotinylated peptide corresponding to the C-terminus of human Ki-Ras.
Assay type: protein-complex assay
Listing of entries alongside the reported pIC50.
Reminder that pIC50 means the negative base-10 logarithm of the concentration expressed in mol/L.

1. N#Cc1ccc2cc1Oc1ccc(C(=O)NC3C4CC5CC(C4)CC3C5)c(c1)CN1CCN(CC1=O)Cc1cncn1C2 (stereo not given): 7.37

Given the entry `CC(C)(C)C#Cc1ccc2cc1CN1CCN(CC1=O)Cc1cncn1Cc1ccc(C#N)c(c1)O2` , report its measured pIC50. 7.26

How about this compound: `COC(=O)c1ccc2cc1CN1CCN(CC1=O)Cc1cncn1Cc1ccc(C#N)c(c1)O2` 6.38

How about this compound: `N#Cc1ccc2cc1Oc1ccc(C#Cc3ccccc3)c(c1)CN1CCN(CC1=O)Cc1cncn1C2` 6.27

How about this compound: `N#Cc1ccc2cc1Oc1ccc(Cl)c(c1)CN1CCN(CC1=O)Cc1cncn1C2` 6.35

====

Test system: PSN1
Procedure Summary: Effective dose required for half-maximal inhibition of geranylgeranylated protein (Rap1a) in PSN-1 cells
Type: functional, cell-based
Assay Context: Homo sapiens
Property Measured: pEC50
Reminder that pEC50 means the negative base-10 logarithm of the concentration expressed in mol/L.

1. N#Cc1ccc(Cn2cncc2CN2CCN(c3cccc(Cl)c3)C(=O)C2)cc1 [L-778123 FREE BASE]: 5.17
2. N#Cc1ccc2cc1Oc1ccc(CCC3CCCCC3)c(c1)CN1CCN(CC1=O)Cc1cncn1C2: 6.85

Given the entry CC1(C)OCC(Cc2ccc3cc2CN2CCN(CC2=O)Cc2cncn2Cc2ccc(C#N)c(c2)O3)O1 (centres undefined) , report its measured pEC50. 6.16

====

Listing of entries alongside the reported IC50.
Target Desc: Protein farnesyltransferase (Homo sapiens, UniProt P49354+P49356)
Procedure Summary: Inhibition of human Farnesyltransferase -catalyzed incorporation of [3H]FPP into recombinant Ras-CVIM.
Type: protein-complex assay
Give your result in nM as a bare value.

Illustrative cases are given below, each with its answer.
1) N#Cc1ccc2cc1Oc1ccc(CC3CC3)c(c1)CN1CCN(CC1=O)Cc1cncn1C2: 0.66
2) N#Cc1ccc2cc1Oc1ccc(Br)c(c1)CN1CCN(CC1=O)Cc1cncn1C2: 0.45

Given the entry `N#Cc1ccc2cc1Oc1cccc(c1)CN1CCN(CC1=O)Cc1cncn1C2` , report its measured IC50. 2.2

How about this compound: `C=CCc1ccc2cc1CN1CCN(CC1=O)Cc1cncn1Cc1ccc(C#N)c(c1)O2` 0.1

====

Target Desc: Geranylgeranyl transferase type I (Homo sapiens, UniProt P49354+P53609)
Procedure Summary: Minimum inhibitory concentration required to inhibit Rap1a processing in PSN-1 cells.
Assay type: functional, cell-based
Property Measured: MIC (µM)
Give your result in µM as a bare value.

Illustrative cases are given below, each with its answer.
1. CCCc1ccc2cc1CN1CCN(CC1=O)Cc1cncn1Cc1ccc(C#N)c(c1)O2: 1
2. CC(C)(C)C#Cc1ccc2cc1CN1CCN(CC1=O)Cc1cncn1Cc1ccc(C#N)c(c1)O2: 1

# evaluate next
State its MIC on Geranylgeranyl transferase type I (Homo sapiens, UniProt P49354+P53609): `CCc1ccc2cc1CN1CCN(CC1=O)Cc1cncn1Cc1ccc(C#N)c(c1)O2` 1
